Reference source for all entries: the M2OR odorant receptor database

Assayed Target: OR1A1 (Homo sapiens) (UniProt Q9P1Q5)
Sequence (Q9P1Q5 whole entry): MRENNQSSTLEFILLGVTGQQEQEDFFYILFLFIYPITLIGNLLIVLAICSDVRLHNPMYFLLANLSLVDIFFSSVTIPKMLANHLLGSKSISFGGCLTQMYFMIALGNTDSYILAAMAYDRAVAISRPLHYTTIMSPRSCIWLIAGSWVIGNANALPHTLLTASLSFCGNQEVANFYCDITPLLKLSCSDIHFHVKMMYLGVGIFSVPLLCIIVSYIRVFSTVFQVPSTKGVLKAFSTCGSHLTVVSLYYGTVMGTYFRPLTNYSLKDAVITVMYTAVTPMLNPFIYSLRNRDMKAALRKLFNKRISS
Measurement Context: stereoisomer not certain
Please reply with one of these outcomes: active, inactive

Below, 5 compounds whose answers are already recorded.
>  <Compound>
CCc1nccnc1CC

>  <Label Value>
inactive

$$$$
>  <Compound>
CSCCCO

>  <Label Value>
inactive

$$$$
>  <Compound>
CC(=O)C(C)C(C)=O

>  <Label Value>
inactive

$$$$
>  <Compound>
SCc1cccs1

>  <Label Value>
inactive

$$$$
>  <Compound>
CCCCCC1CCCC(=O)O1 (configuration not stated)

>  <Label Value>
inactive

$$$$

Test call for this compound, please: CCOC(=O)C=Cc1ccccc1 inactive

Which outcome did this test record for the compound C=CC(C)=CCC=C(C)CCC=C(C)C ? inactive

What did the test return for CCC(C)COC(C)=O (configuration not stated) ? inactive

Tell me the assay call for CCCCOC(=O)C(C)OC(=O)CCC (configuration not stated) please. inactive

Name the outcome recorded for CC=CC(=O)C1=C(C)CCCC1(C)C in the assay. inactive

Would you mind telling me which call this test gave CC(C)=CCCC(C)=CC#N ? inactive

Check the results log: what was the call for CCCCCCCO ? active

Test call, this compound: CCCCCC(=O)CC active

Recorded test call requested for CCC(C)C=O (configuration not stated) inactive

Which outcome was entered for the compound CN(C)C in this test? inactive

// outcome(item) with item = CCCCCCCCCO inactive

Dear colleague, could you share the recorded outcome for CCC=CCC=O when you have a moment? inactive

Record lookup: outcome of this test for CCCC(O)CC(=O)OCC (configuration not stated) ? inactive

---

Assayed Target: UniProt Q8VF24
Sequence (whole entry): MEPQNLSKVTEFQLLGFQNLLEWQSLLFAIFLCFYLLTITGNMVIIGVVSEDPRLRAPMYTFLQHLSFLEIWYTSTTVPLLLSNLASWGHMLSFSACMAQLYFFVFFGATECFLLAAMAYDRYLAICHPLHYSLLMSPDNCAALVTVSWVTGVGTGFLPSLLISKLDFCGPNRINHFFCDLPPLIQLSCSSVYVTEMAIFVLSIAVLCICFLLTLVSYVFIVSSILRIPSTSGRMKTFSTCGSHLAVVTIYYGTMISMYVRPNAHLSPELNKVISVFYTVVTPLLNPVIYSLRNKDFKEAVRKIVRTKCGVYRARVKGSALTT
Measurement Context: stereoisomer not certain
Can you answer with just one of these options? active, inactive

>  <Compound>
CCCCCCCCS

>  <Label Value>
inactive

$$$$

Check the results log: what was the call for CCCCCCCO ? inactive

Please indicate how the test categorized O=C1CCOc2ccccc21 . inactive

---

Assayed Target: UniProt Q8VGC6
Sequence (Q8VGC6 as listed by the source): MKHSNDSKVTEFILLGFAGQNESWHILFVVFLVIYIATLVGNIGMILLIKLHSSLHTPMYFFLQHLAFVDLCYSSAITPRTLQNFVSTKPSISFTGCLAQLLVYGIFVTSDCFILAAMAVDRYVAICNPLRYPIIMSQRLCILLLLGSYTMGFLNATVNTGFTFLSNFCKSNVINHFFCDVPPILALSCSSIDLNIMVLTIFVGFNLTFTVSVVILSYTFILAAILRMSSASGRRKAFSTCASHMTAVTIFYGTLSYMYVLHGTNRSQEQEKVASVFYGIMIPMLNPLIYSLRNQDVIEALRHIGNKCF
Measurement Context: stereoisomer not certain
Hi there, use one of these labels in your reply, thanks! true (1) (active), false (0) (inactive)

>  <Compound>
CCc1ccccc1O

>  <Label Value>
false (0)

$$$$
>  <Compound>
C1CCOC1

>  <Label Value>
false (0)

$$$$
>  <Compound>
CCc1occc(=O)c1O

>  <Label Value>
false (0)

$$$$
>  <Compound>
CCCCCO

>  <Label Value>
false (0)

$$$$
>  <Compound>
CCCCCCCC(C)=O

>  <Label Value>
true (1)

$$$$
>  <Compound>
CCCCCCCCO

>  <Label Value>
true (1)

$$$$
>  <Compound>
CC(=O)OC1(C)CCC23CC1C(C)(C)C2CCC3C (centres undefined)

>  <Label Value>
false (0)

$$$$
>  <Compound>
CCCCC(=O)CC

>  <Label Value>
true (1)

$$$$

Write down the call the test reported for this compound. Item: Cc1ccc(OC(=O)C(C)C)cc1 false (0)

---

Test system: O1440
Sequence (as listed by the source): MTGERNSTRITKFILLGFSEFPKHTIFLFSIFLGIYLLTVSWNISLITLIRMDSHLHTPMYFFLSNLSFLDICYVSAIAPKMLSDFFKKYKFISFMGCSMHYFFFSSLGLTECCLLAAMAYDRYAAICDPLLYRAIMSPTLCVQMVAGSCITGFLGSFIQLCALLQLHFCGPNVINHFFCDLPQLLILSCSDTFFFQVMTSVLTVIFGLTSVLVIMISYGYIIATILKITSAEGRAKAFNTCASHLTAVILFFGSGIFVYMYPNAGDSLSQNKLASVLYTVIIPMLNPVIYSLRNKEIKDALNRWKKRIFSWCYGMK
Measurement Context: stereoisomer not certain

>  <Structure Smiles String>
O=C1C=CCCCCCCCCCCCCO1

>  <Assayed Target>
O1440

>  <odorant receptor agonist call>
active

$$$$
>  <Structure Smiles String>
O=C1CCCCCCC=CCCCCCCC1

>  <Assayed Target>
O1440

>  <odorant receptor agonist call>
active

$$$$
>  <Structure Smiles String>
O=C1CCCCCC=CCCCCCCCCO1

>  <Assayed Target>
O1440

>  <odorant receptor agonist call>
active

$$$$

---

Assayed Target: OR2T34 (Homo sapiens)
Sequence (whole entry): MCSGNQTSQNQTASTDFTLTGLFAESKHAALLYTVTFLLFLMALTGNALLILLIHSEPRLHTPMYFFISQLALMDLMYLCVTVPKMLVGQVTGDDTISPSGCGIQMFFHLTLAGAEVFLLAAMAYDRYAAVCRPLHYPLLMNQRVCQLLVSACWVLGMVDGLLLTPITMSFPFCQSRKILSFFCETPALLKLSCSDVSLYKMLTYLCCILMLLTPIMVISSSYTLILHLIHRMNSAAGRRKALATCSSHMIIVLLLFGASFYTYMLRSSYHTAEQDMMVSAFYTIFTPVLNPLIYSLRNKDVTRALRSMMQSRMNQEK
Measurement Context: stereoisomer not certain
Form entry, call: pick from t for active, f for inactive

Examples from the recorded data:
>  <Compound>
CC1=NC(C)C(C)S1 (configuration not stated)

>  <Assayed Target>
OR2T34 (Homo sapiens)

>  <Label Value>
f

$$$$
>  <Compound>
CCCCC(S)C(C)CO (configuration not stated)

>  <Assayed Target>
OR2T34 (Homo sapiens)

>  <Label Value>
f

$$$$
>  <Compound>
CC(=O)c1c(C)c([N+](=O)[O-])c(C(C)(C)C)c([N+](=O)[O-])c1C

>  <Assayed Target>
OR2T34 (Homo sapiens)

>  <Label Value>
f

$$$$
>  <Compound>
CCCCCC1COCCC1OC(C)=O (configuration not stated)

>  <Assayed Target>
OR2T34 (Homo sapiens)

>  <Label Value>
f

$$$$
>  <Compound>
C=CCOC(=O)COCCC(C)C

>  <Assayed Target>
OR2T34 (Homo sapiens)

>  <Label Value>
f

$$$$
>  <Compound>
CC1CCCCCCCCCCCCC(=O)C1 (configuration not stated)

>  <Assayed Target>
OR2T34 (Homo sapiens)

>  <Label Value>
f

$$$$
>  <Compound>
Cc1occc(=O)c1OC(=O)C(C)C

>  <Assayed Target>
OR2T34 (Homo sapiens)

>  <Label Value>
f

$$$$
>  <Compound>
CC(C)=CCCC(C)=CCO

>  <Assayed Target>
OR2T34 (Homo sapiens)

>  <Label Value>
f

$$$$

Assay outcome for Cc1ccc(C(C)C)cc1O : what was it? f

---

Test system: OR2W1
Sequence (as listed by the source): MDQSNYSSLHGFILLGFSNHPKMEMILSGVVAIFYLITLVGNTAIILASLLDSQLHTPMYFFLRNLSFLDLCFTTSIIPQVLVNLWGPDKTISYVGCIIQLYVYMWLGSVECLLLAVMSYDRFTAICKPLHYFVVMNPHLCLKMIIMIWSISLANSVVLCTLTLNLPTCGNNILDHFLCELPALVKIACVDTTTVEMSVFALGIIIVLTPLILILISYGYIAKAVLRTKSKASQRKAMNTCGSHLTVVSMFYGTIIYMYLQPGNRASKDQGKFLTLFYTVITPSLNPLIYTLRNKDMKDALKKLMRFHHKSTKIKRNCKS
Measurement Context: stereoisomer not certain
Respond using exactly one of the listed classes: active, inactive

The following molecules have reported results that may help.
>  <Molecule>
CCCC1CCCC(=O)O1 (configuration not stated)

>  <Label Value>
inactive

$$$$
>  <Molecule>
COCCC(C)(C)S

>  <Label Value>
inactive

$$$$
>  <Molecule>
CCCCCCC1CCC(=O)O1 (configuration not stated)

>  <Label Value>
active

$$$$
>  <Molecule>
CCCCCCC=CC=O

>  <Label Value>
active

$$$$
>  <Molecule>
CCCC(=O)OC

>  <Label Value>
active

$$$$
>  <Molecule>
C=CC(=O)CCCCC

>  <Label Value>
active

$$$$
>  <Molecule>
CCOC(=O)CC(C)C

>  <Label Value>
inactive

$$$$
>  <Molecule>
CCCCCC(=O)OCC

>  <Label Value>
active

$$$$

I'd appreciate the recorded outcome for COC(=O)C=Cc1ccccc1 from this test. active

Hello, I am checking results. What call was entered for CC(=O)OCCC(C)C ? active

Hey, what did the test say about CCCCC=CC=CC=O ? active

For CCCCCC(=O)C(C)C(C)=O (configuration not stated) , what call appears in the results of this test? active

---

Assayed Target: UniProt Q8VG27
Sequence (whole entry): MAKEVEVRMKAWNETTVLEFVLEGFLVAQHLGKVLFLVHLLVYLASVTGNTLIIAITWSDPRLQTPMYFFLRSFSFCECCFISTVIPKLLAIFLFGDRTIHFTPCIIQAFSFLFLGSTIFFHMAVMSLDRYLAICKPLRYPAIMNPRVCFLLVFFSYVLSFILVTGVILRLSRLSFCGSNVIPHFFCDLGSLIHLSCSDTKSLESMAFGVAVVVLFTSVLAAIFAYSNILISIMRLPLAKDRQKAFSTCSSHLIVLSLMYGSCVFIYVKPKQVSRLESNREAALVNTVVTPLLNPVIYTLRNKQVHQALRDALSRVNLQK
Measurement Context: stereoisomer not certain
# valid calls are true (1) = active, false (0) = inactive; nothing else

>  <Molecule>
COc1nccnc1C(C)C

>  <Label Value>
false (0)

$$$$
>  <Molecule>
CC(=O)Oc1ccccc1

>  <Label Value>
false (0)

$$$$
>  <Molecule>
CCc1nccnc1CC

>  <Label Value>
false (0)

$$$$
>  <Molecule>
CCCCC=O

>  <Label Value>
false (0)

$$$$
>  <Molecule>
CCCCCCCCCC=CC=O

>  <Label Value>
false (0)

$$$$
>  <Molecule>
CC(=O)OC1(C)CCC23CC1C(C)(C)C2CCC3C (stereo not given)

>  <Label Value>
false (0)

$$$$

Now for a further molecule.
Please let me know the test result on file for CCSCC . false (0)
